- tested.system: R132H mutant IDH1 enzyme (Homo sapiens (Human), UniProt O75874, R132H)
- Sequence (O75874 whole entry R132H): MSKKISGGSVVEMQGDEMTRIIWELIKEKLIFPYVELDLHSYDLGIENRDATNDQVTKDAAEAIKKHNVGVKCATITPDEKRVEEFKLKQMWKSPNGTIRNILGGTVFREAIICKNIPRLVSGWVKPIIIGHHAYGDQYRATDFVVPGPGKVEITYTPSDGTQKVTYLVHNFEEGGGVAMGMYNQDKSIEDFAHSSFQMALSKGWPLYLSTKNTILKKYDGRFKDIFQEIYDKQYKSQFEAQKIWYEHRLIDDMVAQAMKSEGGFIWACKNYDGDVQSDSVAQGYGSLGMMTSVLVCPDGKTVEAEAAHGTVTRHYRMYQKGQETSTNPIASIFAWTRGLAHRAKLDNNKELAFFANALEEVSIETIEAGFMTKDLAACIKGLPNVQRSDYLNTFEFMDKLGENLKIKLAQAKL
- experiment: R132H IDH1 Enzymatic Assay
- condition.summary: 1.5 nM final, 30 min preincubation, 60 min reaction, Kinase-GLO luminescence
pIC50: −log10 of the molar value.
measured.endpoint: pIC50

Notebook: `O=C(C1CCN(CC(F)(F)F)CC1)N1Cc2cc(F)cnc2Nc2ccc(N3[C@@H]4CO[C@H]5[C@@H]4OC[C@H]53)cc21` , pIC50 read as 7.73

P. O=C(C1CCN(CC(F)(F)F)CC1)N1Cc2cc(F)cnc2Nc2ccc(N3C[C@H]4COC[C@@H](C3)O4)cc21
Q. Cc1cc2c(cc1N1C[C@H]3CC[C@@H]1CO3)N(C(=O)[C@H]1CC[C@H](OC(C)C)CC1)Cc1cccnc1N2
From the items above, decide which of P and Q has the lower pIC50 reading. Write down the label attached to your selection.
P
